targetOrTestSystem: human α-thrombin (Homo sapiens)
Field: Ki. Provide a value for each of the compounds that follow.

INSERT INTO results (compoundstructurestring, reportedmetric, measured) VALUES
  ('Cc1nc(N)ccc1CNC(=O)Cn1c(C)cc2c([nH]c(=O)n2CC2CC2)c1=O', 'Ki', '> 0.01 µM');

Batch lookup, Ki per entry.
1. Cc1nc(N)ccc1CNC(=O)Cn1c(C)cc2c([nH]c(=O)n2[C@H](C)c2ccccc2)c1=O
2. Cc1nc(N)ccc1CNC(=O)Cn1c(C)cc2c([nH]c(=O)n2CCc2ccccc2)c1=O

1. > 0.01 µM
2. < 0.01 µM
